Assay: Bitterness reduction in a bitter principle solution (expert panel rating)
Assay type: in vivo
Settings: 100 ppm substance, 500 ppm caffeine
Where a name gives a salt, the structure may show the parent alone.
Known % reduction in bitterness impression of a selection of compounds

// below: answered compounds
[
  {
    "COMPOUND": "COc1cc(CNC(=O)c2ccc(O)cc2)ccc1O",
    "METRIC": "% reduction in bitterness impression",
    "RESULT": "26%, p < 0.05"
  },
  {
    "COMPOUND": "COc1ccc(CNC(=O)c2ccc(O)cc2O)cc1O [Example 9, reference compound]",
    "METRIC": "% reduction in bitterness impression",
    "RESULT": "11%"
  },
  {
    "COMPOUND": "COc1cc(CCNC(=O)c2ccc(O)cc2O)ccc1O",
    "METRIC": "% reduction in bitterness impression",
    "RESULT": "20%, p < 0.05"
  }
]

Ask: So what's the measured % reduction in bitterness impression for this one? "COc1cc(CNC(=O)c2ccccc2O)ccc1O"
Reply: 23%, p < 0.05

Ask: Next entry: "COc1cc(CNC(=O)c2c(O)cc(O)cc2O)ccc1O"
Reply: 24%, p < 0.05

Ask: Next entry: O=C(O)c1ccc(O)cc1O [2,4-DHB, 2,4-Dihydroxybenzoic acid, reference compound]
Reply: 3%

Ask: Next entry: COc1cc(CNC(=O)c2ccc(O)cc2O)ccc1O [Example 5, monosodium salt]
Reply: 32%, p < 0.05
